These data points were gathered from PubChem BioAssay (NCI).

I'd appreciate it if you could supply growth values for the items below.
Tested on: SK-OV-3 ovarian
Assay: NCI-60 one-dose screen, 48 h (100 = growth as untreated, 0 = no growth, -100 = all killed)
Condition summary: 10 µM unless noted
Method: Growth inhibition of the SK-OV-3 human tumor cell line is measured as a screen for anti-cancer activity. Cells are grown in 96 well plates and exposed to the test compound for 48 hours. Compounds are tested at a single concentration, which is 10^-5 M for most compounds. The reported endpoint is percent growth (GI% or GIPRCNT), where numbers from 0 - 100% represent growth inhibition, and numbers from -100% - 0 represent cell death. For example, a value of 40 represents 60% growth inhibition. […]
Compounds without any hit were thinned out: in the full panel of roughly 83,000, 20% have a hit.
Record the value in %, omitting the unit from your answer.

In one line, give reported growth of the entry CC(C)(C)c1cc(-c2cc(-c3ccccc3)[nH]c(=O)c2C#N)cc(C(C)(C)C)c1 .
43.7

Return growth for the following compound: C[C@H](NC(=O)c1ccc2c(-c3ccc(C(F)(F)F)cc3)cccc2c1)c1ccccn1
64

Hello, please tell me recorded growth for this one: COc1ccc2[nH]c(O)c(N=Nc3nc(-c4ccc(C#N)cc4)cs3)c2c1
104

Supply reported growth belonging to this compound: FC(F)(F)c1cc2c(Cl)ncnc2n1CCN1CCOCC1
101

Return value of growth for input COc1ccc2[nH]cc(-c3cc4nc(-c5cn(C)c6ncccc56)cc(N)n4n3)c2c1 , no commentary.
103

Give growth for the following compound: O=C1Nc2cc(-c3ccc(NS(=O)(=O)c4ccc(F)c(Cl)c4)cc3)ccc2/C1=C/c1ccc[nH]1
39.6

Please give the documented growth of COc1ccc(C2=NN(C(=O)[C@H]3[C@@H](c4ccco4)c4sc(=O)[nH]c4S[C@@H]3C)C(c3ccc4ccccc4c3)C2)cc1 (some centres undefined)
84.6

Please give the documented growth of COc1ccc(C(=O)C[n+]2cccc3c4ccccc4ccc32)cc1
50.1

Retrieve growth measured for FC(F)(F)c1cc2c(Cl)ncnc2n1CCC1CCOCC1 and print it.
50.6
